src = PubChem BioAssay (NCI)

Answer each item with its documented TGI.
Test system: K-562 leukemia
Assay: NCI tumour cell line growth inhibition, 48 h

Below: 5 compounds and their reported TGI.
compound	system_tested	TGI
N#C/C(=C\c1cc(O)c(O)c(O)c1)C(N)=O	K-562 leukemia	> 100 µM
C/C=C/C(=O)Oc1cccc2cccnc12	K-562 leukemia	> 100 µM
O=C(Oc1ccccc1)N(c1ccccc1)c1ccccc1	K-562 leukemia	> 100 µM
COc1ccc2c(c1)C(=Nc1ccc(F)c(Cl)c1)c1c-2c(Nc2ccc(F)c(Cl)c2)nc2ccccc12	K-562 leukemia	37 µM
CC(=O)OCC1(C)C(O)CCC2(C)C1CCC1CC3CC12CCC3(O)CO (stereo not drawn)	K-562 leukemia	> 100 µM

Give measured TGI for every item shown.
1. O=C1C=C(NCCO)c2nccc3c2c1nc1ccccc13
2. COc1ccc(N2C(=O)C(Cl)C2c2cc3cc(Br)ccc3nc2Cl)cc1 (stereo not drawn)
3. CCc1n[nH]c(=O)n1CC
4. CCCC(=O)OCC1OC(n2cc(F)c(=O)[nH]c2=O)CC1O (stereo not drawn)

Completion:
1: > 100 µM; 2: > 25 µM; 3: > 100 µM; 4: > 10 µM

Give measured TGI for every item shown.
1. NS(=O)(=O)c1nnc(NS(=O)(=O)c2ccccc2[N+](=O)[O-])s1
2. CN1CCN(c2cc3nc(-c4ccc(Cl)cc4)[nH]c3cc2F)CC1
3. CN(C)[C@@H]1C(=O)C(C(=O)NCNc2nc3n[nH]nc3c(=O)[nH]2)=C(O)[C@@]2(O)C(=O)C3=C(O)c4c(O)cccc4[C@@](C)(O)[C@H]3C[C@@H]12
4. C=C(C)[C@H]1CC[C@@]23O[C@@H]2[C@@H](C[C@@]2(C)CC(=O)[C@H](CC(=O)C1)O2)OC(=O)[C@@]12CC[C@H](C(=C)C)CC(=O)C[C@H]4O[C@](C)(CC4=O)C[C@@H](OC3=O)[C@@H]1O2

Completion:
1. > 100 µM
2. 28.7 µM
3. > 16.9 µM
4. > 100 µM

###

Answer each item with its documented TGI.
Tested on: HCC-2998 colon
Assay: NCI tumour cell line growth inhibition, 48 h

molecule	system_tested	TGI
Cc1ccc2c(c1)-c1c3c(nn1C)-c1ccccc1SC3O2 (stereo not given)	HCC-2998 colon	> 100 µM
CC(Br)CN1CCOCC1 (stereo not given)	HCC-2998 colon	> 100 µM
c1ccc(-c2[nH]ncc2-c2ccnc(-c3ccc(OCCN4CCOCC4)cc3)c2)nc1	HCC-2998 colon	> 25 µM
C[C@@H](Nc1cc(F)cc(F)c1)c1cc(C(=O)N(C)C)cc2c(=O)cc(N3CCOCC3)oc12	HCC-2998 colon	> 100 µM
[N-]=[N+]=NC1C(O)C(CO)OC1n1ccc(N)nc1=O (stereo not given)	HCC-2998 colon	> 581 µM

Give measured TGI for every item shown.
1. O=C(O)CCC(NC(=O)c1ccc(Nc2cnc3cc(C(F)(F)F)ccc3n2)cc1)C(=O)O (stereo not given)
2. Cc1cc(O)ccc1C1=NN(c2ccc(S(N)(=O)=O)cc2)C(=O)CC1

Completion:
1. > 100 µM
2. > 100 µM

Give measured TGI for every item shown.
1. COCn1cc(C2=C(C)C(=O)C(C)=C(C)C2=O)cn1
2. CN(C)c1ccc(/C=C(\C#N)c2cc3ccccc3[nH]2)cc1

Completion:
1. > 100 µM
2. > 100 µM
